Values from PubChem BioAssay (NCI)

System: HS 578T breast
Assay: NCI-60 one-dose screen, 48 h
Conditions: 10 µM unless noted
About 83,000 compounds went through this panel and 20% of them were active in at least one assay; those are over-represented in the sample as a whole. Calls of active or inactive are those of the source. How the source made its calls: active means growth percent below 10; inactive means the rest.
Outcomes: active, inactive

>  <Compound>
CC(C)CCSc1nc(N)nc2nc[nH]c12

>  <Label>
inactive

$$$$
>  <Compound>
C=CC1=C(C)C2=NC1=CC1=NC(=CC3=C(C)C4=C(O)C(C(=O)O)C(=C5NC(=C2)C(C)C5CCC(=O)O)C4=N3)C(CC)=C1C (stereo not drawn)

>  <Label>
inactive

$$$$
>  <Compound>
COC(=O)[C@]12CCC(C)(C)C[C@H]1C1=CC[C@@H]3[C@@]4(C)C/C(=C/c5cccnc5)C(=O)C(C)(C)[C@@H]4CC[C@@]3(C)[C@]1(C)CC2

>  <Label>
active

$$$$
>  <Compound>
CCN1CCN(CC(=O)Nc2nc3ccc(NCc4ccc(Cl)cc4)cc3s2)CC1

>  <Label>
inactive

$$$$
>  <Compound>
Cc1ccc(NC(=O)N[C@@H](Cc2cc(F)cc(F)c2)C(=O)N[C@@H]2C(=O)N3CCC[C@H]3C(=O)N3CCOC[C@H]3C(=O)N[C@@H](C)C(=O)N3C[C@H](C)C[C@H]3C(=O)O[C@H]2C)cc1

>  <Label>
inactive

$$$$
>  <Compound>
CCN(CC)CCCC(C)Nc1c2ccc(C)cc2nc2ccc(OC)cc12 (stereo not drawn)

>  <Label>
active

$$$$
>  <Compound>
Cc1ccc(S(=O)(=O)N/N=C2\CC3CCC2(C)C3(C)C)cc1 (stereo not drawn)

>  <Label>
inactive

$$$$
>  <Compound>
Cc1cc(C)c(O)c(CNCCCCCCNCc2cc(C)cc(C)c2O)c1

>  <Label>
active

$$$$
>  <Compound>
COC(=O)c1cc2c(=O)[nH]cc3c2c(n1)CCC3

>  <Label>
inactive

$$$$
>  <Compound>
Cc1ccc(N)c(O)c1

>  <Label>
inactive

$$$$
>  <Compound>
Nn1c(Nc2ccc(S(=O)(=O)Nc3ncccn3)cc2)nnc(/C=C/c2c(O)ccc3ccccc23)c1=O

>  <Label>
inactive

$$$$
>  <Compound>
Oc1cc(Nc2ccnc3cc(Cl)ccc23)c2ncccc2c1

>  <Label>
inactive

$$$$
>  <Compound>
Cc1cccc(C[C@H](NC(=O)Nc2ccc(Cl)cc2F)C(=O)N[C@@H]2C(=O)N3C[C@H](O)C[C@H]3C(=O)N3CCCC[C@H]3C(=O)N[C@@H](C)C(=O)N3C[C@H](C)C[C@H]3C(=O)O[C@H]2C)c1

>  <Label>
inactive

$$$$
>  <Compound>
Cc1c(Cn2cc(COc3ccc(Br)cc3)nn2)c(C)c(Cn2cc(COc3ccc(Br)cc3)nn2)c(C)c1Cn1cc(COc2ccc(Br)cc2)nn1

>  <Label>
inactive

$$$$
>  <Compound>
NC(=O)c1cccc(-c2ccc(S(=O)(=O)Nc3ccc4c(c3)N(C(=O)C3CC3)CCC4)cc2)c1

>  <Label>
inactive

$$$$
>  <Compound>
CC1(C(=O)O)CCC(N)(C(=O)O)C1(C)C (stereo not drawn)

>  <Label>
inactive

$$$$
>  <Compound>
COC(=O)c1cc(O)c2c(c1C(=O)OC)C[C@H]1[C@@H]3CC=C4C[C@@H](O)CC[C@]4(C)[C@H]3CC[C@]21C

>  <Label>
inactive

$$$$
>  <Compound>
O=c1cc(-c2ccccc2)oc2cc(OCc3cn(Cc4ccc(F)cc4)nn3)cc(O)c12

>  <Label>
active

$$$$
